experiment: Metabolic stability in rat liver microsomes assessed as parent compound remaining at 1 uM measured after 45 mins by LC-MS/MS analysis; type: ADME, Microsome; conditions: read-out: Stability
Each entry below carries its recorded remaining at 0.75 h, 1 µM.
Quick reminder: number only, in %, skip the unit.

> print(dat)
                                   compound  obsvalue
1  O=C(c1ccc(F)cc1)C1CCN(CCn2c(=O)[nH]c3ccccc3c2=O)CC1 [KETANSERIN]      14.1

State the recorded remaining at 0.75 h, 1 µM for this entry: `C=CC(=O)Nc1ccc(Cn2cnc3c(-c4cc(OC)cc(OC)c4)ncnc32)cc1` 9.41

All figures here come from ChEMBL document CHEMBL5500360.
